Target entity: T1, apical domain of cynomolgus CD71 (cynomolgus, UniProt A0A2K5X958 189-383)
T1 construct: domain: apical domain; also called Cyno apical domain
T1 sequence (A0A2K5X958 entry or part of it): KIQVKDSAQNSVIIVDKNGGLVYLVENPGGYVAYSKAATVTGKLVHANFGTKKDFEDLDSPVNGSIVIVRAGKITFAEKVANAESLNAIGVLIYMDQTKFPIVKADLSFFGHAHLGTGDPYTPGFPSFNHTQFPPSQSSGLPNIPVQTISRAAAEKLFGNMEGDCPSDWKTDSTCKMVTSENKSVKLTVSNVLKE
Assay explanation: primary ELISA; note: test concentration or dose not given here
RLU values by entry

{"columns": ["Binder", "RLU"],
 "data": [
  ["CD71-binding FN3 domain of SEQ ID NO: 165 (designed binder) MSLPAPKNLVVSRVTEDSARLSWTAPDAAFDSFYIAYAEPRPDGEAILLEVPGSERSYDLAGLKPGTEYSVLIHGVKGGLLSSPLGAEFTT", "3.62e+06 RLU"],
  ["CD71-binding FN3 domain of SEQ ID NO: 181 (designed binder) MSLPAPKNLVVSRVTEDSARLSWTAPDAAFDSFEIGYFENDYFGEAIVLTVPGSERSYDLTGLKPGTEYWVQIGGVKGGNWSAPLSAIFTT", "4.61e+06 RLU"],
  ["CD71-binding FN3 domain of SEQ ID NO: 141 (designed binder) MSLPAPKNLVVSRVTEDSARLSWTAPDAAFDSFEIGYFENLYLGEAIVLTVPGSERSYDLTGLKPGTEYWVQIGGVKGGNWSAPLSAYFTT", "5.4e+06 RLU"],
  ["CD71-binding FN3 domain of SEQ ID NO: 125 (designed binder) MSLPAPKNLVVSRVTEDSARLSWTAPDAAFDSFYIAYAEPRPDGEAIILLVPGSERSYDLTGLKPGTEYSVLIHGVKGGLLSSPLHAHFTT", "5.09e+06 RLU"]
]}
